# EXPERIMENTAL TARGET: Large T antigen (Simian virus 40)
# PROCEDURE DETAILS: SV40 large T antigen inhibitors, biochemical (AID 1903)
# RUN PARAMETERS: SV40 large T antigen ATPase/helicase inhibition assay; at 20 µM; stronger effect = higher value
Screen size: about 310,000 compounds; about 1,200 (0.39%) were called active. Not all results are given here. Results with a measured potency or affinity are listed apart.
VALUE KIND: inhibition

Examples with their reported inhibition follow.
CCOC(=O)C1=C(C)Nc2nc(C)nn2C1c1cc(OC)ccc1OC (configuration not stated) ... 5.76% (inactive)
O=C(N/N=C/c1ccc(O)c(Br)c1)c1cc2c(ccc3ccccc32)o1 ... -8.03% (inactive)
CC(=O)C[C@H]1c2ccccc2S(=O)(=O)N1C1CCCC1 ... 3.17% (inactive)
C=C1C(=O)O[C@@H]2C[C@@H](C)[C@@H]3C=CC(=O)[C@@]3(C)[C@@H](OC(C)=O)[C@H]12 ... 35.6% (inactive)
COc1ccc(S(=O)(=O)N2CCN(c3ccc(C)cc3C)CC2)cc1OC ... 7.1% (inactive)

response.value for CC(=O)Nc1ccc(NC(=O)CSc2nc3ccccc3o2)cc1 (field: inhibition) = 5.88% (inactive)

response.value for C/C(=N/NC(=O)CSc1nc2ccccc2n1C)c1ccco1 (field: inhibition) = -1.06% (inactive)

response.value for COC(=O)c1ccc(N)c(CS(=O)(=O)c2ccc(Cl)cc2)c1 (field: inhibition) = -0.68% (inactive)

response.value for Cc1ccc(NS(=O)(=O)c2cc3c4c(c2)CC(=O)N4CCC3)cc1C (field: inhibition) = 7.5% (inactive)

response.value for O=C(CN1C(=O)/C(=C/c2ccc(C(F)(F)F)cc2)Sc2ccccc21)NCCCN1CCOCC1 (field: inhibition) = 6.23% (inactive)

response.value for O=C1/C(=C/c2ccc(F)cc2)SC(=S)N1CC(=O)N1CCCCC1c1cccnc1 (configuration not stated) (field: inhibition) = 18.2% (inactive)

response.value for O=C(NCCc1ccccn1)C1CC(=O)N(Cc2ccccc2Cl)C1 (configuration not stated) (field: inhibition) = 15.4% (inactive)

---

Catalogue of molecules with associated inhibition
# EXPERIMENTAL TARGET: Large T antigen (Simian virus 40) (UniProt P03070)
# Sequence (P03070 whole entry, looked up): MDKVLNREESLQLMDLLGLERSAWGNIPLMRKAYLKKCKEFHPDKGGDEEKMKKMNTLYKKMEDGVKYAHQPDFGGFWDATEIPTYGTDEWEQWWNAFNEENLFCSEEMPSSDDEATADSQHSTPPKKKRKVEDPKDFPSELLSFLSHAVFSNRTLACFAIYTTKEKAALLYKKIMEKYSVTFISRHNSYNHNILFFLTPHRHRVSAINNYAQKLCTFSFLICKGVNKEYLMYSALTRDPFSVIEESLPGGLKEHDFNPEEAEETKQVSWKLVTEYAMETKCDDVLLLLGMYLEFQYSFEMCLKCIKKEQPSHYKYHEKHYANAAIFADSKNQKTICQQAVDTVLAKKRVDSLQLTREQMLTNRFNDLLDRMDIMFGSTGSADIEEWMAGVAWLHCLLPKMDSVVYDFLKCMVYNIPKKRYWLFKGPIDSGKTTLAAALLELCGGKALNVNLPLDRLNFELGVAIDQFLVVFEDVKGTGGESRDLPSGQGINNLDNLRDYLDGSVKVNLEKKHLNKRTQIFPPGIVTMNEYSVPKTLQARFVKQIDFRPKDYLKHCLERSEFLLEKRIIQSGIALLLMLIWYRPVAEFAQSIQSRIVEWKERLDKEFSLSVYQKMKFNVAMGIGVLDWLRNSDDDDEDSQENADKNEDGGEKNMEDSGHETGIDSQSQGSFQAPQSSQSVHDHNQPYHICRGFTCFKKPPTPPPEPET
# PROCEDURE DETAILS: SV40 large T antigen inhibitors, biochemical (AID 1903)
# RUN PARAMETERS: SV40 large T antigen ATPase/helicase inhibition assay; at 20 µM; stronger effect = higher value
In all, about 310,000 compounds went through this assay and about 1,200 (0.39%) were called active. The list is a sample of the results. Results with a measured potency or affinity are listed apart.
Give the quantity in %, number only.

O=C(CCc1ccccc1)Nc1nc2nc(-c3ccccc3)cc(=O)n2[nH]1 ... -26.7

response.value for Cc1ccccc1Nc1c(-c2cccnc2)nc2ccccn12 (field: inhibition) = 11.7

response.value for COc1ccc(/C=N/NC2=NCCCCC2)cc1 (field: inhibition) = -2.48

response.value for Nc1c(N)c2ccccc2oc1=O (field: inhibition) = 3.21

response.value for COc1ccc(OC)c(/C=N/Nc2nncn2/N=C/c2cc(OC)ccc2OC)c1 (field: inhibition) = 12.7

response.value for Cc1nc2sc3c(c2c2nc(-c4ccco4)nn12)CCCC3 (field: inhibition) = 14.8
